- Assay summary: Plasma protein binding assay (PPB), equilibrium dialysis, 10% FCS in PBS
- Format: in vitro ADME
- Condition: bovine, read-out: PPB 10% FCS (% fu)
- Protocol: Binding of test compounds to plasma was determined using equilibrium dialysis (ED) and quantitative mass spectrometry interfaced with liquid chromatography (LC-MS). […] After incubation, protein was precipitated from aliquots of each chamber and the concentration of test compound in the supernatant of the plasma-containing compartment (Cserum) and of the buffer-containing compartment (Cbuffer) was determined by LC-MS. […]
Classification field: enter Yes for fraction unbound values not below 0.2, No for values below it.

Known results for compounds:
Compound	Class label
C[C@H](Oc1cc(-n2nccn2)nc(-c2onc3c2CCC[C@@]32CCCc3sc(N)c(C#N)c32)n1)[C@@H]1CCCN1C [I-29]	Yes
C[C@H](Oc1cc(-c2ccn3ncnc3c2)nc(-c2noc3c2CCC[C@@]32CCCc3sc(N)c(C#N)c32)n1)[C@@H]1CCCN1C [II-104]	No
C[C@H](Oc1cc(C2=CCNCC2)nc(-c2noc3c2CCC[C@@]32CCCc3sc(N)c(C#N)c32)n1)[C@@H]1CCCN1C [II-164]	Yes
C[C@H](Oc1cc(N2CCNC(C)(C)C2)nc(-c2noc3c2CCC[C@@]32CCCc3sc(N)c(C#N)c32)n1)[C@@H]1CCCN1C [II-32]	Yes

Kindly determine if fraction unbound recorded for C[C@@H]1CN(c2nc(-c3noc4c3CCC[C@@]43CCCc4sc(N)c(C#N)c43)nc(O[C@@H](C)[C@@H]3C[C@@H](F)CN3C)c2F)CC2(CC2)N1 [II-158] is above or exactly 0.2.
No

Kindly determine if fraction unbound recorded for C[C@H](Oc1cc(-n2cc3ccn(C[C@H]4CCOC4)c(=O)c3n2)nc(-c2noc3c2CCC[C@@]32CCCc3sc(N)c(C#N)c32)n1)[C@@H]1CCCN1C [II-204] is above or exactly 0.2.
No

---

- Assay summary: Solubility measurement (DMSO solution method), McIlvaine buffer pH 4.5 or 6.8
- Format: physicochemical
- Condition: aqueous buffer, kinetic from dmso stock; McIlvaine buffer pH 4.5; DMSO stock diluted to 250 μM; 24 h shaking at ambient temperature; read-out: solubility pH 4.5
Reported metric: solubility at 24 h

Illustrative cases are given below, each with its answer.
Smiles text	solubility at 24 h
C[C@H](Oc1cc(N2CCNC3(CCCC3)C2)nc(-c2noc3c2CCC[C@@]32CCCc3sc(N)c(C#N)c32)n1)[C@@H]1CCCN1C	> 138 µg/mL
C[C@H](Oc1cc(N2CCNCC2)nc(-c2noc3c2CCC[C@@]32CCCc3sc(N)c(C#N)c32)n1)[C@@H]1CCCN1C	> 135 µg/mL

Proceeding to the next molecule to report its solubility at 24 h.
Quick one: solubility at 24 h of C[C@@H]1CN(c2nc(-c3noc4c3CCC[C@@]43CCCc4sc(N)c(C#N)c43)nc(O[C@@H](C)[C@@H]3C[C@@H](F)CN3C)c2F)CC2(CC2)N1 ?
> 150 µg/mL

---

- Test system: AsPC-1 cells
- Assay summary: AsPC-1 CTG proliferation assay (120 h) (pancreatic cancer, G12D)
- Format: cell-based
- Condition: Homo sapiens, ASPC1
Reported metric: IC50

Illustrative cases are given below, each with its answer.
Compound	Target system	Result value
C[C@H]1CN(C)CCCN1c1cc(N2CCN(C)CC2)nc(-c2noc3c2CCC[C@@]32CCCc3sc(N)c(C#N)c32)n1	AsPC-1 cells	2380 nM
C[C@H](Oc1cc(N2CCN(C)C3(CCOC3)C2)nc(-c2noc3c2CCC[C@@]32CCCc3sc(N)c(C#N)c32)n1)[C@@H]1C[C@@H](F)CN1C (stereo partly drawn)	AsPC-1 cells	714 nM
CNC(=O)c1cn(-c2cc(O[C@@H](C)[C@@H]3CCCN3C)nc(-c3noc4c3CCC[C@@]43CCCc4sc(N)c(C#N)c43)n2)nn1	AsPC-1 cells	3350 nM

Quick one: IC50 of [2H]C([2H])([2H])N1C[C@H](F)C[C@H]1[C@H](C)Oc1cc(N2CCNC3(CC3)C2)nc(-c2noc3c2CCC[C@@]32CCCc3sc(N)c(C#N)c32)n1 ?
15 nM

Quick one: IC50 of CO[C@@H]1C[C@@H]([C@H](C)Oc2cc(-c3ccn(C4COC4)n3)nc(-c3noc4c3CCC[C@@]43CCCc4sc(N)c(C#N)c43)n2)N(C)C1 ?
7270 nM

Quick one: IC50 of CO[C@H]1CCN(C)[C@@H]1[C@H](C)Oc1cc(N2CCNC3(CC3)C2)nc(-c2onc3c2CCC[C@@]32CCCc3sc(N)c(C#N)c32)n1 ?
20 nM

Quick one: IC50 of CO[C@H]1CCN(C)[C@@H]1[C@H](C)Oc1cc(-n2ccc(C(=O)N[C@@H](C)c3ccccn3)n2)nc(-c2noc3c2CCC[C@@]32CCCc3sc(N)c(C#N)c32)n1 ?
248 nM

Quick one: IC50 of C[C@H](Oc1cc(N2C[C@H](C)N[C@@H](C)C2)nc(-c2noc3c2CCC[C@@]32CCCc3sc(N)c(C#N)c32)n1)[C@@H]1CCCN1C ?
378 nM

Quick one: IC50 of COCc1cn(-c2cc(O[C@@H](C)[C@@H]3CCCN3C)nc(-c3noc4c3CCC[C@@]43CCCc4sc(N)c(C#N)c43)n2)nn1 ?
3070 nM

---

- Assay summary: Caco-2 assay (permeability PappAB, PappBA, efflux ratio)
- Assay type: in vitro ADME
- Condition: human, Caco-2; apical to basolateral; 10 μM test compound, pH 7.4
Reported metric: Papp A→B at 90 min, 10 μM (×10⁻⁶ cm/s)
# number only, unit ×10⁻⁶ cm/s dropped from output

Illustrative cases are given below, each with its answer.
Smiles text	Result units	Papp A→B at 90 min, 10 μM
C[C@H](Oc1cc(-n2cc3c(n2)CNC3)nc(-c2noc3c2CCC[C@@]32CCCc3sc(N)c(C#N)c32)n1)[C@@H]1CCCN1C	×10⁻⁶ cm/s	1
C[C@H](O)Cn1ccc(-c2cc(O[C@@H](C)[C@@H]3CCCN3C)nc(-c3noc4c3CCC[C@@]43CCCc4sc(N)c(C#N)c43)n2)n1	×10⁻⁶ cm/s	5.9
COCCNC(=O)c1ccn(-c2cc(O[C@@H](C)[C@@H]3CCCN3C)nc(-c3onc4c3CCC[C@@]43CCCc4sc(N)c(C#N)c43)n2)n1	×10⁻⁶ cm/s	14

Quick one: Papp A→B at 90 min, 10 μM of C[C@H](Oc1cc(-n2ccc(C(=O)N[C@@H]3CCOC3)n2)nc(-c2noc3c2CCC[C@@]32CCCc3sc(N)c(C#N)c32)n1)[C@@H]1CCCN1C ?
10

Quick one: Papp A→B at 90 min, 10 μM of C[C@H](Oc1cc(-n2cncn2)nc(-c2noc3c2CCC[C@@]32CCCc3sc(N)c(C#N)c32)n1)[C@@H]1CCCN1C ?
17

---

- System: KRAS G12V-dependent Ba/F3 cells
- Assay summary: Ba/F3 proliferation assay, KRAS G12V;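 also: proliferation IC50 in KRAS G12V-dependent Ba/F3 cells read by AlamarBlue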
- Type: cell-based
- Condition: Mus musculus, BaF3, 72 h, AlamarBlue
Let's look at some molecules and their measured pIC50.
Note: pIC50 values are expressed as the negative base-10 logarithm of concentration in M.

Smiles text	Reported metric	Result value
C[C@H](Oc1cc(N2CC[C@H](N3CCCC3)C2)nc(-c2noc3c2CCC[C@@]32CCCc3sc(N)c(C#N)c32)n1)[C@@H]1CCCN1C	pIC50	6.11
C[C@H](Oc1cc(-c2ccn(C[C@@H](C)O)n2)nc(-c2noc3c2CCC[C@@]32CCCc3sc(N)c(C#N)c32)n1)[C@@H]1CCCN1C	pIC50	8.22
CO[C@H]1CCN(C)[C@@H]1[C@H](C)Oc1cc(-n2ccc(C(=O)N[C@@H]3CCOC3)n2)nc(-c2onc3c2CCC[C@@]32CCCc3sc(N)c(C#N)c32)n1	pIC50	9.00
C[C@H](Oc1cc(-n2ccc(C(=O)N[C@H]3CCOC3)n2)nc(-c2onc3c2CCC[C@@]32CCCc3sc(N)c(C#N)c32)n1)[C@@H]1CCCN1C	pIC50	9.00
C[C@H](Oc1cc(N2CCN(C)C3(CC3)C2)nc(-c2noc3c2CCC[C@@]32CCCc3sc(N)c(C#N)c32)n1)[C@@H]1C[C@@H](F)CN1C	pIC50	6.39

Quick one: pIC50 of C[C@H](Oc1cc(-c2ccc(N)nc2)nc(-c2onc3c2CCC[C@@]32CCCc3sc(N)c(C#N)c32)n1)[C@@H]1CCCN1C ?
7.24

Quick one: pIC50 of C[C@H](Oc1cc(C2=CCNCC2)nc(-c2noc3c2CCC[C@@]32CCCc3sc(N)c(C#N)c32)n1)[C@@H]1CCCN1C ?
6.88

Quick one: pIC50 of C[C@H](Oc1cc(-n2ccc(-c3ccccn3)n2)nc(-c2noc3c2CCC[C@@]32CCCc3sc(N)c(C#N)c32)n1)[C@@H]1CCCN1C ?
8.22
